Test system: BT-549
Assay Method Text: NCI tumour cell line growth inhibition, 48 h
Calls of active or inactive are those of the source. No stated cut-off is given here; in the data, active = GI50 up to about 1.1 µM and inactive = higher.

Molecule	Study System	GI50
CCCn1c(CN(Cc2nc3ccccc3n2CCC)Cc2nc3ccccc3n2CCC)nc2ccccc21	BT-549	5.71 µM (inactive)
Nc1nc(S)c2c(N)n[nH]c2c1C(=O)Nc1ccccc1	BT-549	> 100 µM (inactive)
Cc1nc(C(N)=S)sc1C(=O)CC(=O)C(=O)Nc1cccc(Cl)c1C	BT-549	> 100 µM (inactive)
N#CC1=C(N)OC2=C(CCCc3ccc([N+](=O)[O-])cc32)C1c1ccccc1 (stereo not given)	BT-549	4.5 µM (inactive)
CC(NC(=O)Cc1ccccc1)NC(=O)C(C)C(=O)Nc1ccccc1 (stereo not given)	BT-549	43.5 µM (inactive)

----------
Tested on: U-251
Assay Method Text: NCI tumour cell line growth inhibition, 48 h
Calls of active or inactive are those of the source. Cut-off read from the data, not from the text of the source: active = GI50 up to about 1.1 µM and inactive = higher.
Measured GI50 by item

Molecule	GI50
O=C1CCC2(c3ccccc3)OCC([C@@H](O)c3ccccc3)N12 (some centres undefined)	> 100 µM (inactive)
CC1=C(C)C2(C#N)C(=O)N3C(=NC(c4ccccc4)NC3c3ccccc3)C2(C#N)C(c2ccccc2)N1 (centres undefined)	> 100 µM (inactive)
CC(=O)OCC12CN(C#N)C3C4COC(CC41)C1(C(=O)N(C)c4ccccc41)C32 (centres undefined)	56.1 µM (inactive)
O=C1c2c(nc3ccccc3c2-c2ccccc2)CN1Nc1ccccn1	66.7 µM (inactive)
Cc1cc(O)nc(NNC(C#N)c2ccco2)n1 (centres undefined)	> 100 µM (inactive)
CC(C)(C)c1cc([Si](C)(C)C)c(C#N)c([Si](C)(C)C)c1	36.1 µM (inactive)
O=C1NC(N2CCCCC2)=N/C1=C\c1ccccc1O	> 100 µM (inactive)
C=C(C1=CC(=O)C(C)(C)O1)[C@@H]1CC=C([C@@H]2CC[C@H]3[C@@]2(C)CC[C@H]2C(C)(C)C(=O)[C@H](OC(=O)CC(C)(O)CC(=O)O)C[C@]32C)[C@H](O)O1 (some centres undefined)	13.5 µM (inactive)
C=C(C)C1CC2(C)C(C)CC(O)CC2C(OC(=O)C=C(C)C)C1O (centres undefined)	40 µM (inactive)

----------
Measured GI50 by item
System: SF-268
Assay Method Text: NCI tumour cell line growth inhibition, 48 h
Calls of active or inactive are those of the source. Cut-off read from the data, not from the text of the source: active = GI50 up to about 1.1 µM and inactive = higher.
Measurement Kind: GI50

Compound	Study System	Measurement Kind	Measured Value
NC(Cc1cc(I)c(Oc2ccc(O)c(I)c2)c(I)c1)C(=O)O (centres undefined)	SF-268	GI50	42.6 µM (inactive)
COC(=O)C1CC(C(=O)OC)c2nc3cc(C)c(C)cc3nc21 (centres undefined)	SF-268	GI50	> 100 µM (inactive)
COC(=O)C1=CCON(c2ccccc2)C1c1ccccc1 (centres undefined)	SF-268	GI50	75.3 µM (inactive)
CC(C)(C)c1cc(C(=O)/C=C/c2ccc(O)c(O)c2O)cc(C(C)(C)C)c1O	SF-268	GI50	5.3 µM (inactive)

----------
Test system: DLD-1
Assay Method Text: NCI tumour cell line growth inhibition, 48 h
Activity calls are given as the source filed them. No stated cut-off is given here; in the data, active = GI50 up to about 1.1 µM and inactive = higher.

Molecule	GI50
CC(C)OP(=O)(OC(C)C)/C(=N/Nc1ccc([N+](=O)[O-])cc1)NCCO	> 100 µM (inactive)
O=[N+]([O-])c1ccc(C2=Nn3c(nnc3-c3ccc(Cl)cc3)SC2)o1	2.06 µM (inactive)
O=C1/C(=C/c2ccc(Cl)cc2)COc2ccc(Br)cc21	> 100 µM (inactive)
Cc1cc(O)nc(NNC(C#N)c2cccc([N+](=O)[O-])c2)n1 (stereo not given)	> 100 µM (inactive)
O=C(O)CCCc1cc2c(s1)-c1cccc3cccc-2c13	39 µM (inactive)

The reported numbers originate from ChEMBL document CHEMBL1201862.
